Molecular target: T1, His-tagged human TFR1 (transferrin receptor 1) protein (human, UniProt P02786 89-760)
T1 construct: Bought protein; The order of the tag and the receptor part is not known; also called hTFR1-His; ACROBiosystems Cat #: CD1-H5243; not shown: His tag
T1 sequence (P02786 89-760 limits assumed): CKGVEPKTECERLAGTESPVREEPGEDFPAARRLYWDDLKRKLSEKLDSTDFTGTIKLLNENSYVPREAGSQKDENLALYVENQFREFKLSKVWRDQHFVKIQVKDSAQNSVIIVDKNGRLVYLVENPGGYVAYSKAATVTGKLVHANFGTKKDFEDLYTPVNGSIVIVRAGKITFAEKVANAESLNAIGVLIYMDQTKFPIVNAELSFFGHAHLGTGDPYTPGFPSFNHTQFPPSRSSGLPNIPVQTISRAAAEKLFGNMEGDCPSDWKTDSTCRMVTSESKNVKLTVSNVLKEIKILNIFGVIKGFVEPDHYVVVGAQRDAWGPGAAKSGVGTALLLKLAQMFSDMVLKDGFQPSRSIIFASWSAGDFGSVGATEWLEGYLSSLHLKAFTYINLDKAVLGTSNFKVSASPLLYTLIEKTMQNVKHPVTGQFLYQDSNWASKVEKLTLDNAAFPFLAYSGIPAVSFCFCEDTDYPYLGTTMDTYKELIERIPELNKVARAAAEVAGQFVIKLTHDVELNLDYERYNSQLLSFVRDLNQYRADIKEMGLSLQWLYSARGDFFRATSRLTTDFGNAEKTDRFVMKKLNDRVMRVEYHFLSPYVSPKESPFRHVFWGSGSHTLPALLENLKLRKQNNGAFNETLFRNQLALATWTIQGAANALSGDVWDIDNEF
Assay: BLI (Octet) binning; hTFR1-His captured on HIS1K; ratio = binding of analyte 2 / binding of analyte 1; competitor (analyte 1, bound first): 24G5
Description: Relative positions of target protein epitope between a pair of purified anti-TFR1 antibodies were analyzed by Biolayer Interferometry (BLI) using ForteBio Octet system at 30° C. […] The binding value of each antibody was obtained using Data Analysis HT 12.0. To quantify the interference of one antibody binding to another, a binding ratio was calculated to compare each pair of antibodies. […]
Item-by-item account of binding ratio
// return just the number, without any unit appended

Worked examples, 4 binders total:
binder: 24G5 (antibody, human IgG1, V domains shown, Heavy-chain antibody without light chain; also called anti-TFR1 antibody 24G5) VH: QLQLQESGGGLVQPGGSLRLTCAASGFTFSSFAMSWVRQAPGKGLERVSEISDSGGNTYYADSVKGRFTISRDNSKNTLYLQMNSLRAEDTAVYYCAKDDSSGWAFNIWDQGTVVTVSS
binding ratio: 0

binder: 24A1 (antibody, human IgG1, V domains shown, Heavy-chain antibody without light chain; also called anti-TFR1 antibody 24A1) VH: EVQLVESGGGLVQPGGSLRLTCAASGFTFSSYAMSWVRQAPGKGLERVSEISGSGSSTNYADSVKGRFTISRDNSKNTLYLQMNSLRAEDTAVYYCAKDDSSGWAFNIWDQGTVVTVSS
binding ratio: 0.1

binder: 23B8 (antibody, V domains shown, Heavy-chain antibody without light chain; also called anti-TFR1 antibody 23B8) VH: QVTLKESGGGLVKPGGSLRLSCAASGFPFSNAWMNWVRQAPGKGLEWVGHIKSKTDGGTTDYAAPVKGRFTISRDDSKNMVFLQMNSLKTEDTAVYYCTTDRAYCGGDCSHYYYHDLDVWGQGTTVTVSS
binding ratio: 0.3

binder: JR141-N (antibody, V domains shown, also called positive control; JR141 VH and VL on human IgG1 N297A) VH: EVQLVQSGAEVKKPGESLKISCKGSGYSFTNYWLGWVRQMPGKGLEWMGDIYPGGDYPTYSEKFKVQVTISADKSISTAYLQWSSLKASDTAMYYCARSGNYDEVAYWGQGTLVTVSS VL: DIVMTQTPLSLSVTPGQPASISCRSSQSLVHSNGNTYLHWYLQKPGQSPQLLIYKVSNRFSGVPDRFSGSGSGTDFTLKISRVEAEDVGVYYCSQSTHVPWTFGQGTKVEIK
binding ratio: 0

Recorded binding ratio for 24C9 (antibody, human IgG1, V domains shown, Heavy-chain antibody without light chain; also called anti-TFR1 antibody 24C9) VH: EVQLVQSGGGVVQPGRSLRLSCAASGFTLSSYGMYWVRQAPGKGREWVAFIRFDESKKYYADSVKGRFTISRDNSKNTLYLQMNSLRAEDTAVYYCARDGEGGYCTNGVCHGLDVWGQGTTVTVSS , please? 0.2

// data source = patent US20260078197A1
